Measured values drawn from patent US11395857B2 for this set.

Please go through the items and note down their tissue uptake at 24 h.
Assay: Biodistribution of 177Lu-labeled αMSH analogues in mice bearing B16F10 mouse melanoma
Assay type: in vivo, C57BL/6J mice
Conditions: mouse, muscle, iv, total radioactivity; 24 h p.i., C57BL/6J mice, B16F10 melanoma; read-out: Biodistribution, Muscle
Numbers only, in %ID/g.

The following molecules have reported results that may help.
CCCC[C@H](NC(=O)CN1CCC(NC(=O)[C@H](CCCCNC(=O)CN2CCN(CC(=O)O)CCN(CC(=O)O)CCN(CC(=O)O)CC2)NC(=O)[C@H](CCC(=O)O)NC(=O)CCCc2ccc(I)cc2)CC1)C(=O)N[C@H]1CC(=O)NCCCC[C@@H](C(N)=O)N(C)C(=O)[C@H](Cc2c[nH]c3ccccc23)NC(=O)[C@H](CCCNC(=N)N)N(C)C(=O)[C@@H](Cc2ccccc2)NC(=O)[C@H](Cc2c[nH]cn2)NC1=O [^177Lu-labeled CCZ01118, metal not drawn] | 0.03
CCCC[C@H](NC(=O)CN1CCC(NC(=O)CN2CCN(CC(=O)O)CCN(CC(=O)O)CCN(CC(=O)O)CC2)CC1)C(=O)N[C@H]1CC(=O)NCCCC[C@@H](C(N)=O)N(C)C(=O)[C@H](Cc2c[nH]c3ccccc23)N(C)C(=O)[C@H](CCCNC(=N)N)N(C)C(=O)[C@@H](Cc2ccccc2)NC(=O)[C@H](Cc2c[nH]cn2)N(C)C1=O [^177Lu-labeled CCZ01099, metal not drawn] | 0.01
CCCC[C@H](NC(=O)CN1CCC(NC(=O)[C@H](CCCCNC(=O)CN2CCN(CC(=O)O)CCN(CC(=O)O)CCN(CC(=O)O)CC2)NC(=O)[C@H](CCC(=O)O)NC(=O)CCCc2ccc(I)cc2)CC1)C(=O)N[C@H]1CC(=O)NCCCC[C@@H](C(N)=O)NC(=O)[C@H](Cc2c[nH]c3ccccc23)NC(=O)[C@H](CCCNC(=N)N)NC(=O)[C@@H](Cc2ccccc2)NC(=O)[C@H](Cc2c[nH]cn2)NC1=O [^177Lu-labeled CCZ01082, metal not drawn] | 0.06

Req: Look at this molecule and give its reported tissue uptake at 24 h. CCCC[C@H](NC(=O)CN1CCC(NC(=O)CN2CCN(CC(=O)O)CCN(CC(=O)O)CCN(CC(=O)O)CC2)CC1)C(=O)N[C@H]1CC(=O)NCCCC[C@@H](C(N)=O)N(C)C(=O)[C@H](Cc2c[nH]c3ccccc23)NC(=O)[C@H](CCCNC(=N)N)N(C)C(=O)[C@@H](Cc2ccccc2)NC(=O)[C@H](Cc2c[nH]cn2)NC1=O [^177Lu-labeled CCZ01106, metal not drawn]
Resp: 0.01
